Listed here: items and their measured pIC50.
- Tested on: HEK293 transfected with human OCT2 (HEK-hOCT2)
- assay comment: MTT cytotoxicity assay in HEK293 stably transfected with human OCT2
- protocol conditions: read-out: IC50 HEK-hOCT2; HEK293 stably transfected with human OCT2; MTT, 7 h exposure then 72 h
Note on pIC50: it is the negative log10 of concentration, concentration in mol/L.

Inquiry: // lookup pIC50 for `[NH2][Pt]([NH2])([Cl])[N]1CCN(c2ccccc2)CC1`
Reply text: 5.90

Others:
Inquiry: // lookup pIC50 for `[NH3+][Pt-2]([Cl])([Cl])[NH+]1CCN(c2ccccc2)CC1`
Reply text: 8.30
